- Tested on: NCI/ADR-RES
- test: NCI tumour cell line growth inhibition, 48 h
Active and inactive are the calls of the source. Rule as the data show it: active = GI50 up to about 1.1 µM and inactive = higher.
Bench note: report the call from true = active, false = inactive

## Input Any idea what this test logged for O=C1c2cc3ccccc3cc2C2(c3ccc(Cl)cc3)N[C@H]3CCCC[C@@H]3N12 (some centres undefined) ?
## Output false

## Input And the next one, N=C(c1cccs1)C1(N2CCCCC2)CCCCC1 ?
## Output false

## Input Please give the result for C/C(=N\Nc1nc2ccccc2[nH]1)c1ncccn1 too.
## Output true

## Input Lookup CNC(=O)N1CN(c2ccccc2)C2(CCN(Cc3ccccc3)CC2)C1=O
## Output false

###

- Tested on: NCI-H226
- test: NCI tumour cell line growth inhibition, 48 h
Active and inactive are the calls of the source. Cut-off read from the data, not from the text of the source: active = GI50 up to about 1.1 µM and inactive = higher.
Select the correct class. Options are active, inactive and nothing else.

## Input Just curious, what result did CCOC(=O)c1cn2c(n1)sc1cc(F)ccc12 get here?
## Output inactive

## Input Another: CCN1C(=O)C(=CN)C(=O)N(CC)C1=O
## Output inactive

## Input And what about the compound CC1CN(c2ccc(Cl)cc2)CC(C)OC(=O)O1 (stereo unspecified) ?
## Output inactive

## Input Record: CN(C)Cc1cc(/N=N/c2ccccc2)cc(CN(C)C)c1O
## Output inactive

## Input COC(=O)c1c(C)cccc1CC1Cc2c(C)cccc2C1=O (stereo unspecified) ?
## Output inactive

## Input What would you report for CO[C@H]1[C@H](O)[C@H](O[C@H]2CC[C@@]3(C)[C@H](CC[C@@H]4[C@@H]3CC[C@]3(C)[C@@H](C5=CC(=O)OC5)CC[C@]43O)C2)O[C@@H](C)[C@@H]1O [NERIIFOLIN] ?
## Output active

## Input Proceed to Brc1ccc2c(c1)C1=C(CO2)Cc2ccccc2O1
## Output inactive

## Input Again, but for CCOC(=O)c1ccc(-c2cccs2)n1C
## Output inactive

## Input Moving on to O=C(c1ccccc1)[C@H]1Nc2ccc(Cl)cc2[C@H]2CCC[C@@H]12
## Output inactive

## Input Param item: CC1=CC(=O)/C(=C/NC(N)=S)C(=O)O1
## Output inactive

## Input Next up: Cc1ccc(NC(=O)COC(=O)c2cccc3c(=O)c4ccccc4[nH]c23)cc1
## Output inactive

## Input Moving on to COc1ccc(-c2nc(-c3ccc(OC)cc3)n(-c3ccccc3)n2)cc1
## Output inactive

## Input Likewise for O=C1OC2C(O)C(=O)OC2C1O (stereo unspecified) ?
## Output inactive

## Input Try O=C=C=P(c1ccccc1)(c1ccccc1)c1ccccc1 next.
## Output inactive

## Input Further, for COC(=O)/C(=N\NC(C)(C)C)C(C(=O)OC)C(=O)C(=O)Nc1cc(Cl)ccc1Cl (stereo unspecified) ?
## Output inactive

## Input Check O=C(OCCOCCOC(=O)c1c[nH]cc1-c1ccccc1)c1c[nH]cc1-c1ccccc1 too.
## Output inactive

###

- Test system: OVCAR-8
- test: NCI tumour cell line growth inhibition, 48 h
Calls of active or inactive are those of the source. No stated cut-off is given here; in the data, active = GI50 up to about 1.1 µM and inactive = higher.
Outcome (select one): active, inactive

## Input Fill in: this test's call for Cc1ccc([S@+]([O-])c2occc2C=O)cc1 is ___
## Output inactive

## Input Likewise for NCC1OC(n2cnc3c(=O)[nH]c(N)nc32)C(O)C1O (stereo unspecified) ?
## Output inactive

## Input Field entry: Cn1c(Sc2ccc(-c3cccnc3)n2C)ccc1-c1cccnc1
## Output inactive

## Input # repeat for CCOC(=O)NC(=O)c1cn(CCOCCOC(=O)NCCCCCCNC(=O)OCCOCCn2cc(C(=O)NC(=O)OCC)c(=O)[nH]c2=O)c(=O)[nH]c1=O
## Output inactive

## Input // query: O=C1c2cc3ccccc3cc2C2(c3ccc(Cl)cc3)N[C@H]3CCCC[C@@H]3N12 (stereo partly specified)
## Output inactive

## Input Please do the same for CC(C)=CCC/C(=C/CC/C(=C\CCc1ccoc1)C(=O)O)C(=O)O as well.
## Output inactive

## Input Next entry: O=C1OC2C(O)C(=O)OC2C1O (stereo unspecified)
## Output inactive

## Input How about Cc1[nH]c2ccccc2c1C1CC(=O)NC1=O (stereo unspecified) ?
## Output inactive

## Input Would you kindly repeat that for Cc1ccc(S(=O)(=O)OCOS(=O)(=O)c2ccc(C)cc2)cc1 ?
## Output inactive

## Input One more compound: O=C(/C=C/c1ccco1)CC(=O)/C=C/c1ccco1
## Output inactive

## Input For CCOP(=O)(OCC)c1cc2cc(O)ccc2oc1=O then?
## Output inactive

## Input # iterate: O=c1c2nn3c(=O)n(-c4ccccc4)c(=O)c3nn2c(=O)n1-c1ccccc1
## Output inactive

## Input Try COc1cc2c3c(c1OC)C(=O)C(=O)C1=C3N(CCC1)CC2 next.
## Output inactive

## Input Another compound to check: CC(=O)/C=C1\Nc2ccc([N+](=O)[O-])cc2N\C1=C/C(C)=O
## Output inactive

## Input // same read-out, input: N#CC12CNCC1CN=N2 (stereo unspecified)
## Output inactive

## Input CCOC(=O)C1=C(NC)OC/C1=N\NC(=O)c1ccccc1O ?
## Output inactive

## Input Try this compound too: O=C(/C=N/c1ccccc1S)c1ccco1
## Output inactive

## Input Same question for CC1CN(c2ccc(Cl)cc2)CC(C)OC(=O)O1 (stereo unspecified) please.
## Output inactive

## Input What do you get for COc1ccc(OC(=O)CC2Cc3cc(OC)c(OC)c(OC)c3-c3ccc(SC)c(=O)cc32)cc1 (stereo unspecified) ?
## Output active

## Input Do the same for COc1cc(C(c2cccc3ccccc23)N2C(=O)CCC2C(=O)O)cc(OC)c1OC (stereo unspecified) please
## Output inactive

## Input Repeat for the following compound: C=C1CC(Cn2cc(Br)c(=O)[nH]c2=O)(c2ccc(-c3ccccc3)cc2)OC1=O (stereo unspecified)
## Output active

###

- Tested on: Malme-3M
- test: NCI tumour cell line growth inhibition, 48 h
The source made the active and inactive calls. No stated cut-off is given here; in the data, active = GI50 up to about 1.1 µM and inactive = higher.
Provide the reported GI50 of each item.

## Input Need GI50, item C=C(C)c1nc(Oc2ccccc2)nc(Oc2ccccc2)n1
## Output 13.9 µM (inactive)

## Input Try this molecule next: O=C1CCC2(c3ccc(Cl)cc3)Nc3cc(Cl)ccc3N12 (stereo unspecified)
## Output 10.7 µM (inactive)

## Input Try this molecule next: CC(C)C(Cl)CC/C(CBr)=C(\Cl)CCl (stereo unspecified)
## Output 6.71 µM (inactive)

## Input What do we get for CN(C)Cc1cc(/N=N/c2ccccc2)cc(CN(C)C)c1O ?
## Output > 100 µM (inactive)

## Input What do we get for CC(=O)Oc1ccccc1-c1cc2ccccc2oc1=O ?
## Output > 100 µM (inactive)

## Input And for Cc1ccc(/N=N/c2c(O)c(C(=O)O)cc3ccccc23)cc1C ?
## Output > 100 µM (inactive)

###

- Tested on: IGROV-1
- test: NCI tumour cell line growth inhibition, 48 h
Calls of active or inactive are those of the source. No stated cut-off is given here; in the data, active = GI50 up to about 1.1 µM and inactive = higher.
The categories you may choose from are true (1) = active, false (0) = inactive

## Input // outcome(item) with item = COC(=O)CC1C2(C)C3=C(C)C(c4ccoc4)CC3OC2C2OC(=O)C3(C)C=CC(=O)C1(C)C23 (configuration not stated)
## Output true (1)

## Input Also check CCOC(=O)NC(=O)c1cn(CCOCCOC(=O)NCCCCCCNC(=O)OCCOCCn2cc(C(=O)NC(=O)OCC)c(=O)[nH]c2=O)c(=O)[nH]c1=O
## Output false (0)

## Input Another compound: COc1ccc(NC=O)c(C(=O)CCNC(C)=O)c1
## Output false (0)

## Input NC(=O)C1CCCNC1 (configuration not stated) , same question.
## Output false (0)

## Input Same thing, different compound: CO[C@H]1[C@H](O)[C@H](O[C@H]2CC[C@@]3(C)[C@H](CC[C@@H]4[C@@H]3CC[C@]3(C)[C@@H](C5=CC(=O)OC5)CC[C@]43O)C2)O[C@@H](C)[C@@H]1O [NERIIFOLIN]
## Output true (1)

## Input Try the compound Nc1nc(O)c(Br)c(-c2cccc([N+](=O)[O-])c2)n1
## Output false (0)

## Input Please give the result for CC(C)=CCC/C(=C/CC/C(=C\CCc1ccoc1)C(=O)O)C(=O)O too.
## Output false (0)

###

Answer each item with its documented GI50.
- Tested on: MOLT-4
- test: NCI tumour cell line growth inhibition, 48 h
The source made the active and inactive calls. Rule as the data show it: active = GI50 up to about 1.1 µM and inactive = higher.

## Input Look at this compound and give its reported GI50. COc1c(CC(C)=O)ccc2c1C(=O)c1ccc(C=O)c(OC(C)=O)c1C2=O
## Output 11.4 µM (inactive)

## Input Next entry: C[Si](C)(C)OC1CC(=O)OC1n1cc(F)c(=O)[nH]c1=O (centres undefined)
## Output 17.8 µM (inactive)

## Input Check COc1ccc(-c2cc(-c3ccco3)c(C#N)c(=S)n2C2OC(CO)C(O)C(O)C2O)cc1 (centres undefined) too.
## Output > 100 µM (inactive)

## Input Then this compound: Cc1ccc(S(=O)(=O)NC(=O)Nc2nnc(S(N)(=O)=O)s2)cc1
## Output > 100 µM (inactive)

## Input Could you do the same for Cc1nn(C(=O)CC(=O)Nc2ccc(Cl)cc2)c(C)c1/N=N/c1ccccc1C(=O)O , please?
## Output > 100 µM (inactive)

## Input Item: COC(=O)/C(=N\NC(C)(C)C)C(C(=O)OC)C(=O)C(=O)Nc1cc(Cl)ccc1Cl (centres undefined)
## Output > 100 µM (inactive)

## Input Field entry: CC(C)(c1ccccc1)c1ccc(Oc2ccc3c(c2)-c2nc-3nc3[nH]c(nc4nc(nc5[nH]c(n2)c2ccc(Oc6ccc(C(C)(C)c7ccccc7)cc6)cc52)-c2cc(Oc5ccc(C(C)(C)c6ccccc6)cc5)ccc2-4)c2ccc(Oc4ccc(C(C)(C)c5ccccc5)cc4)cc32)cc1
## Output > 100 µM (inactive)

## Input Now this one: CCN1C(=O)C(=CN)C(=O)N(CC)C1=O
## Output > 100 µM (inactive)

## Input For CCOC(=O)Cc1ccc2c(c1O)C(=O)c1c(ccc(CC(=O)OCC)c1O)C2=O then?
## Output 87.9 µM (inactive)
